Test system: Escherichia coli
Test: Antibacterial activity against Escherichia coli ATCC 25922
Format: functional
testReadout: MBC

{"molecule": "N=C1N(CCc2cc(C(F)(F)F)cc(C(F)(F)F)c2)[C@@H](CC2CCCCC2)CN1[C@@H](CC1CCCCC1)CN1CCCC1CN1C(N)=NC[C@@H]1Cc1ccccc1 (stereo partly specified)", "testReadout": "MBC", "readoutValue": "> 10 mg/L"}
{"molecule": "CCCC[C@@H]1CN([C@@H](CC2CCCCC2)CN2CCCC2CN2C(N)=NC[C@@H]2C)C(=N)N1CCc1cc(C(F)(F)F)cc(C(F)(F)F)c1 (stereo partly specified)", "testReadout": "MBC", "readoutValue": "> 10 mg/L"}
{"molecule": "CCCC[C@@H]1CN([C@H](CC2CCCCC2)CN2CCCC2CN2C(N)=NC[C@@H]2Cc2ccccc2)C(=N)N1CC(C)c1ccc(CC(C)C)cc1 (stereo partly specified)", "testReadout": "MBC", "readoutValue": "> 10 mg/L"}
{"molecule": "CC(C)Cc1ccc(C(C)CN2C(=N)N([C@H](CC3CCCCC3)CN3CCCC3CN3C(N)=NC[C@@H]3Cc3ccccc3)C[C@H]2CC2CCCCC2)cc1 (stereo partly specified)", "testReadout": "MBC", "readoutValue": "5 mg/L"}
{"molecule": "C[C@H]1CN=C(N)N1CC1CCCN1C[C@@H](CC1CCCCC1)N1C[C@H](CC2CCCCC2)N(CCc2cc(C(F)(F)F)cc(C(F)(F)F)c2)C1=N (stereo partly specified)", "testReadout": "MBC", "readoutValue": "5 mg/L"}
{"molecule": "N=C1N(CCc2cc(C(F)(F)F)cc(C(F)(F)F)c2)[C@H](CC2CCCCC2)CN1[C@H](Cc1ccc2ccccc2c1)CN1CCCC1CN1C(N)=NC[C@@H]1Cc1ccccc1 (stereo partly specified)", "testReadout": "MBC", "readoutValue": "> 10 mg/L"}
